ASSAY TARGET: EBOV GPddmuc (Ebola virus (EBOV)), Q05320
ASSAY PROCEDURE: ELISA
CONDITION DESCRIPTION: remark: other sources report otherwise
RECORDED ENDPOINT: EC50 (nM)
Answers are plain numbers, in nM.

BINDER	RECORDED ENDPOINT	MEAS VALUE
FVM04 (antibody, V domains shown) VH: EVQLVQSGGGLVQPGGSMRLSCEASGLSLSDYFMHWVRQAQGKGLEWIGLIQTKAFTYKTEYPAAVKGRFTISRDDSKNTLYLQMSSLKPEDTALYYCIAVTPDFYYWGQGVLVTVSS VL: DVVMTQSPSFLSASVGDRVTITCRASQDITINLNWFQHKPGKAPKRLIYVASRLERGVPSRFSGSGSGTEFTLTISSLQPEDFATYYCQQYNNYPLTFGPGTKLDIKRTV	EC50	0.149
FVM20 (antibody, V domains shown) VH: EVQLVESGAEVKRPGESLTISCKTSGYSFTGSWISWVRQMPGKGLEWLGSIYPGDSETKYNPSFQGHVTISADKSVTTTYLKWSSLKASDTATYYCVKGSETWGQGVLVTVSS VL: NFMLTQSASLSASPGASASLTCTFSGGINVAGYHIFWYQQNPGSPPRYLLRYKSDSEKDQGSGVPSRFSGSKDASANTGILRISGLQSEDEADYYCAIGHSSGWIFGGGTRLTVL	EC50	0.081
FVM09 (antibody, V domains shown) VH: EVQLVQSGAEVKRPGESLTISCKTSGYSFTDSWVAWVRQMPGKGLEWLGSIYPGDSETKYNPSFQGHVTISADKSVTTTYLKWSSLKASDTATYYCVKGSETWGQGVLVTVSS VL: QLVLTQPASLSASPGASASLTCTFSGGINVAGYNILWYQQKAGSPPRYLLRYKSDSTKDQGSGVPSRFSGSKDASANTGILRISGLQSEDEADYYCAIGHSSGWIFGGGTRLTVL	EC50	7.07

Let us examine a further case.
Req: Recorded EC50 of FVM17 (antibody, V domains shown) VH: EVQLVQSGAEVKRPGESLTISCKTSGYSFTDSWISWVRQMPGKGLEWMGSIYPGDSDARYNPSFQGHVTISADKSISTTYLKWSSLKASDTATYYCVKGSETWGQGVLVTVSS VL: QAVVTQPASLSASPGTSASLTCTFSGGINVAGYNILWYQQKPGSPPRFLLRYKSDSDNVQGSGVPSHFSGSKDASANTGILRISGLQSEDEADYYCAIGHSSGWIFGGGTRLTVL , please.
Resp: 0.096
